- assay comment: Toxicity liver stage against HepG2, at 10uM
- Assay type: cell-based
- Set-up: test concentration 10 uM, cell line HepG2-A16-CD81EGFP
- condition details: human, HepG2-A16-CD81EGFP cells; read-out: INHIBITION
Consider the following molecules; for each one, report its cytotoxicity at 10 µM.
Numbers only, in %.

Example cases with answers are listed next.
CN(C)CC(=O)N1Cc2nc(C(=O)NCc3ccccc3)oc2C1: -81.5
CCc1nc(CN2CCCN(c3nn4cc(C)nc4s3)CC2)no1: -14.7
CN(CC(=O)N1CCCCC1Cn1cccn1)Cc1ccccc1 (centres undefined): -3.99
Cc1cc(C(=O)N2CCC[C@]3(C[C@@H](OCC4CC4)CO3)C2)no1: -78.9
O=C(CCSc1ccccc1)NS(=O)(=O)c1ccc2c(c1)OCCO2: -5.69
COc1ccc(CN2CCCn3cnc(COCC4CC4)c3C2)cc1: 11

Could you report cytotoxicity at 10 µM for every entry in the following list?
1. Cc1cnc(C)c(N2CC[C@H](N3CCOCC3)[C@H](CCCO)C2)n1
2. Cc1nc(C)n(CC2CCCCN2CC(=O)NC2CCOCC2)n1 (centres undefined)
3. Cc1nc(NC(=O)N(C)Cc2ccoc2)nn1C

**A:**
[6.12, -9.32, -6.03]
